Entry source: the NIST ThermoML archive (doi:10.1021/je700670k)

Readings of mass density for the listed compounds
- measurement.parameters: 323.15 K; 35000 kPa; Liquid; Vibrating tube method
± gives the expanded uncertainty stated by the source.

CCC[N+]1(C)CCCC1.O=S(=O)([N-]S(=O)(=O)C(F)(F)F)C(F)(F)F | 1434.4 ± 12 kg/m3
CCn1cc[n+](C)c1.O=S(=O)([O-])C(F)(F)F [1-ethyl-3-methylimidazolium trifluoromethanesulfonate] | 1372.9 ± 12 kg/m3
CCC[N+]1(C)CCCCC1.O=S(=O)([N-]S(=O)(=O)C(F)(F)F)C(F)(F)F | 1412.1 ± 12 kg/m3
CCCC[N+]1(C)CCCC1.O=S(=O)([N-]S(=O)(=O)C(F)(F)F)C(F)(F)F | 1405.4 ± 12 kg/m3

Moving on to the next compound.
// query Sample CCC[n+]1cccc(C)c1.O=S(=O)([N-]S(=O)(=O)C(F)(F)F)C(F)(F)F — what was its mass density?
// result 1450.5 ± 12 kg/m3

* * *

- measurement.parameters: 353.15 K; 3000 kPa; Liquid; Vibrating tube method
Numbers after ± are expanded uncertainties.
result.type: mass density
I'd appreciate it if you included the unit after the number.

CCn1cc[n+](C)c1.O=S(=O)([O-])C(F)(F)F [1-ethyl-3-methylimidazolium trifluoromethanesulfonate] | 1327.2 ± 12 kg/m3
CCC[N+]1(C)CCCCC1.O=S(=O)([N-]S(=O)(=O)C(F)(F)F)C(F)(F)F | 1361.1 ± 12 kg/m3

// query Sample CCCC[N+]1(C)CCCC1.O=S(=O)([N-]S(=O)(=O)C(F)(F)F)C(F)(F)F — what was its mass density?
// result 1354.1 ± 12 kg/m3

// query Sample CCC[n+]1cccc(C)c1.O=S(=O)([N-]S(=O)(=O)C(F)(F)F)C(F)(F)F — what was its mass density?
// result 1396.4 ± 12 kg/m3

// query Sample CCC[N+]1(C)CCCC1.O=S(=O)([N-]S(=O)(=O)C(F)(F)F)C(F)(F)F — what was its mass density?
// result 1382.5 ± 12 kg/m3

* * *

Readings of mass density for the listed compounds
- measurement.parameters: 293.15 K; 7500 kPa; Liquid; Vibrating tube method
State the answer as a number, implicitly in kg/m3.

Recorded mass density, per entry:
CCn1cc[n+](C)c1.O=S(=O)([O-])C(F)(F)F [1-ethyl-3-methylimidazolium trifluoromethanesulfonate] | 1383.9
CCC[N+]1(C)CCCCC1.O=S(=O)([N-]S(=O)(=O)C(F)(F)F)C(F)(F)F | 1422
CCC[N+]1(C)CCCC1.O=S(=O)([N-]S(=O)(=O)C(F)(F)F)C(F)(F)F | 1444

// query Sample CCC[n+]1cccc(C)c1.O=S(=O)([N-]S(=O)(=O)C(F)(F)F)C(F)(F)F — what was its mass density?
// result 1460.5

// query Sample CCCC[N+]1(C)CCCC1.O=S(=O)([N-]S(=O)(=O)C(F)(F)F)C(F)(F)F — what was its mass density?
// result 1414.4

* * *

- measurement.parameters: 293.15 K; 10000 kPa; Liquid; Vibrating tube method
result.type: mass density (kg/m3)
State the answer as a number, implicitly in kg/m3.

CCC[N+]1(C)CCCC1.O=S(=O)([N-]S(=O)(=O)C(F)(F)F)C(F)(F)F | 1445.8
CCCC[N+]1(C)CCCC1.O=S(=O)([N-]S(=O)(=O)C(F)(F)F)C(F)(F)F | 1416.1

// query Sample CCC[n+]1cccc(C)c1.O=S(=O)([N-]S(=O)(=O)C(F)(F)F)C(F)(F)F — what was its mass density?
// result 1462.4

// query Sample CCn1cc[n+](C)c1.O=S(=O)([O-])C(F)(F)F [1-ethyl-3-methylimidazolium trifluoromethanesulfonate] — what was its mass density?
// result 1385.4

// query Sample CCC[N+]1(C)CCCCC1.O=S(=O)([N-]S(=O)(=O)C(F)(F)F)C(F)(F)F — what was its mass density?
// result 1423.8
